The origin of these recorded values is patent US20250360057A1.

Experiment: Degree of (vinyl) conversion (DC) of cured dental adhesive/resin by FT-IR (ATR)
Format: physicochemical
Conditions: resin 70 wt % Bis-GMA / 30 wt % TEGDMA with CQ/4E, 0.5 wt % additive
PROPERTY_LABEL: Degree of Conversion (%)
Form entry: value (%) — number only.

Please look up its Degree of Conversion: CC(C)C(=O)Oc1ccc(/N=N/c2ccncc2)cc1 [Azo-Py-iBu, reference compound] 66.7

====

Experiment: Degree of (vinyl) conversion (DC) of cured dental adhesive/resin by FT-IR (ATR)
Format: physicochemical
Conditions: versus resin without additive; Bis-GMA/TEGDMA resin
PROPERTY_LABEL: change of Degree of Conversion (in words)

c1cc(N=Nc2ccncc2)ccn1 [reference compound] :: No change
c1ccc(/N=N/c2ccccc2)cc1 [reference compound] :: No change
c1cc(CCc2ccncc2)ccn1 [reference compound] :: No change

====

Recorded increase of Degree of Conversion for the following compounds
Test: Degree of (vinyl) conversion (DC) of cured dental adhesive/resin by FT-IR (ATR)
Assay type: physicochemical
Settings: versus resin without additive; 70 wt % Bis-GMA / 30 wt % TEGDMA, CQ/4E, 0.5 wt % additive
Form entry: value (%) — number only.

Please look up its increase of Degree of Conversion: C=C(C)C(=O)OCCNC(=O)OCCCCCCCC[n+]1ccc(/N=N/c2ccc(OC(=O)C(C)C)cc2)cc1.[Br-] 0.5

Note, next up: C=C(C)C(=O)OCCCCCC[n+]1ccc(/N=N/c2ccc(OC(=O)C(C)C)cc2)cc1.[Br-] 4.7

Note, next up: C=C(C)C(=O)Oc1ccc(/N=N/c2cc[n+](CC)cc2)cc1.[Br-] 2.1

Note, next up: C=C(C)C(=O)Oc1ccc(/N=N/c2cc[n+](CCCCCCCCCCCCCCCC)cc2)cc1.[Br-] 4.3

Note, next up: CC(C)C(=O)Oc1ccc(/N=N/c2cc[n+](CCCCCBr)cc2)cc1.[Br-] 4.9

====

Assay: Degree of (vinyl) conversion (DC) of cured dental adhesive/resin by FT-IR (ATR)
Type: physicochemical
Conditions: resin 70 wt % Bis-GMA / 30 wt % TEGDMA with CQ/4E, 0.5 wt % additive
PROPERTY_LABEL: Degree of Conversion (%)
Form entry: value (%) — number only.

Known Degree of Conversion results, listed for orientation:
C=C(C)C(=O)Oc1ccc(/N=N/c2ccncc2)cc1 [Azo-Py-MA, reference compound] :: 70.2
C=C(C)C(=O)OCCCCCC[n+]1ccc(/N=N/c2ccc(OC(=O)C(C)C)cc2)cc1.[Br-] [MA-C6-Azo-Py-iBu] :: 74.9
C=C(C)C(=O)Oc1ccc(/N=N/c2cc[n+](CCCCCCCCCCCCCCCC)cc2)cc1.[Br-] [Azo-QPS-C16] :: 74.5
C=C(C)C(=O)OCCNC(=O)OCCCCCCCC[n+]1ccc(/N=N/c2ccc(OC(=O)C(C)C)cc2)cc1.[Br-] [MA-CB13-Azo-QPS-iBu] :: 70.7
C=C(C)C(=O)Oc1ccc(/N=N/c2cc[n+](CC)cc2)cc1.[Br-] [Azo-QPS-C2-MA] :: 72.3
CC(C)C(=O)Oc1ccc(/N=N/c2cc[n+](CCCCCBr)cc2)cc1.[Br-] [Br-C6-Azo-Py-iBu] :: 75.1

Next compound, Degree of Conversion to be filled in.
Please look up its Degree of Conversion: Oc1ccc(/N=N/c2ccncc2)cc1 [Azo-Py-OH, reference compound] 68.4
